Biological target: FBXW7-SKP1 (Homo sapiens, UniProt Q969H0)
Construct: FBXW7 (Uniprot ID: Q969H0, residues 263-706) with an N-terminal GST-TEV tag and C-terminal AVI tag; GST-TEV (N); made in house; host or cells: E. coli BL21 (DE3)
Sequence (Q969H0 263-706): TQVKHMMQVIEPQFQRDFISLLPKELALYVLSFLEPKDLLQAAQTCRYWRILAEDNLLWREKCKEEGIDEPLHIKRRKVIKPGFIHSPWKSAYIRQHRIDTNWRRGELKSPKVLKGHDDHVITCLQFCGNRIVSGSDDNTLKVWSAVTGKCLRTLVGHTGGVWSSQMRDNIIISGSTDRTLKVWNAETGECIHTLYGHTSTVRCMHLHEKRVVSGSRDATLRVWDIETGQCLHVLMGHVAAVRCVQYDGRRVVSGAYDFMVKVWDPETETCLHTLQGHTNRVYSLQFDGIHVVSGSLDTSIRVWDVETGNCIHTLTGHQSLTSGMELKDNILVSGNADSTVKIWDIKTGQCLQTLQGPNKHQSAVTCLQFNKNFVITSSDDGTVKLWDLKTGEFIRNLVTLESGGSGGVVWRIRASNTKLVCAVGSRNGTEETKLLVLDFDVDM
Sequence (P63208 whole entry partner, the tested form may be a part): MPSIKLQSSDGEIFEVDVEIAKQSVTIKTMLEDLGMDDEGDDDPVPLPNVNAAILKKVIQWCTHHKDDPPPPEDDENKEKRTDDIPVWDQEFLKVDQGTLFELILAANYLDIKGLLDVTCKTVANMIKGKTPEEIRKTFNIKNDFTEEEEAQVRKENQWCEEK
Assay: Naive Library Presenter Screening (phage, NGS), FBXW7-SKP1
Type: binding
Details: FBXW7 target concentration 1000 nM, second column
Numbered stars: 1 amine (or outer) side, 2 acyl side, 3 side chain; on linkers, the order of the positions; unused ones are H or OH. Bridge positions count the residues as written; N and C are the ends. Ends that are not written are not given here. Phenylene(1,4-NHCOCH2)2 = O=C(C[*:1])Nc1ccc(NC(=O)C[*:2])cc1
# if value of interaction data at Target Concentration 1000 reaches 80, tag True; if it stays below, tag False

[
  {
    "Sequence entry": "DPAAFFCDDAAERCEFW",
    "Category": "True"
  }
]

In: Record DPADMMCENAALLCEFW ; criterion: interaction data at Target Concentration 1000 no lower than 80. Met?
Out: True

In: Record DPANWVCMDAAELCDFY (DPANWVCMDAAELCDFY-NH2; linker 7-14 via Phenylene(1,4-NHCOCH2)2 (inferred)) ; criterion: interaction data at Target Concentration 1000 no lower than 80. Met?
Out: False

In: Record DPADLTCEDAAELCEFW ; criterion: interaction data at Target Concentration 1000 no lower than 80. Met?
Out: True

In: Record DPADMYCRDAAELCEFW ; criterion: interaction data at Target Concentration 1000 no lower than 80. Met?
Out: True

In: Record DPAIRMCRDAAELCEFW ; criterion: interaction data at Target Concentration 1000 no lower than 80. Met?
Out: True

In: Record DPANIACDDAALLCEFW ; criterion: interaction data at Target Concentration 1000 no lower than 80. Met?
Out: True

* * *

Hi there, I'd appreciate the recorded Phage library screen NGS readout, BLANK for every entry that follows.
Biological target: RNF31 PUB domain (Homo sapiens, UniProt Q96EP0)
Construct: MBP-TEV (N, cleaved yes); made in house; host or cells: E. coli BL21 (DE3) pLysS
Sequence (Q96EP0 1-179): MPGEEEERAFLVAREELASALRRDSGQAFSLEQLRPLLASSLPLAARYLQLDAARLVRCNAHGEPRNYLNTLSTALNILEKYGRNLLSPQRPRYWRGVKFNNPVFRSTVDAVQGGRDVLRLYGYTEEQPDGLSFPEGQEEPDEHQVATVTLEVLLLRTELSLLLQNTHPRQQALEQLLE
Assay: Phage Library Screening with NGS, RNF31 PUB domain
Format: binding
Settings: clusters C41-C45; BLANK screen, column 4 of 5

Solved entries (count: 4):
[
  {
    "Sequence entry": "DPAQYQCDIAAQVCSTY",
    "Phage library screen NGS readout, BLANK": 0
  },
  {
    "Sequence entry": "DPAEQFCLYAAYDCYSE",
    "Phage library screen NGS readout, BLANK": 0
  },
  {
    "Sequence entry": "DPAADDCEWAALYCSFH",
    "Phage library screen NGS readout, BLANK": 2
  },
  {
    "Sequence entry": "DPAQEACWDAAIMCTYR",
    "Phage library screen NGS readout, BLANK": 0
  }
]

// recorded Phage library screen NGS readout, BLANK for DPAIQECYLAAQVCTTY : 0
